Field: Population Pyknosed Nuclei (%). Provide a value for each of the molecules that follow.
System: Fibroblast
Assay: Multiplex assay against human fibroblast
Type: toxicity, cell-based
Conditions: 48 h, 1 µM, compound concentration 1 uM, replicate 1
Give just the numeric value; % need not be written.

Challenge: # query: Population Pyknosed Nuclei (%) of entry O=C(c1cc2c(cc1F)OC(c1ccc(F)cc1)(c1ccc(Cl)cc1Cl)O2)N1CCOCC1 (centres undefined)
Response given: 18

Challenge: Which Population Pyknosed Nuclei (%) value belongs to CC(C)c1noc(N2CCC(COc3ccc(-c4ccc(S(C)(=O)=O)cc4)nc3)CC2)n1 ?
Response given: 15

Challenge: Would you mind telling me what Population Pyknosed Nuclei (%) value was observed for CC(C)OC(=O)N1CCC(Oc2ncnc3c2cnn3-c2ccc(S(C)(=O)=O)cc2F)CC1 ?
Response given: 12

Challenge: What value of Population Pyknosed Nuclei (%) has been recorded for this entry: COc1cc(Nc2nccc(-c3cnn4nc(OC)ccc34)n2)cc(C(F)(F)F)c1
Response given: 17

Challenge: Requested read-out: Population Pyknosed Nuclei (%). Entry: COc1ccccc1CN[C@H]1C2CCN(CC2)[C@H]1C(c1ccccc1)c1ccccc1
Response given: 9

Challenge: Entry Cc1cccc(CN2CCN(C(c3ccccc3)c3ccc(Cl)cc3)CC2)c1.Cl.Cl (centres undefined) has what Population Pyknosed Nuclei (%)?
Response given: 10

Challenge: For the molecule CC(C)(C)NC[C@H](O)COc1nsnc1N1CCOCC1 , what Population Pyknosed Nuclei (%) is on record?
Response given: 16

Challenge: For the molecule shown here, CCc1ccc(OCc2ccccc2C(=O)Nc2ccc3nc(C)cc(N)c3c2)cc1.Cl , give the reported Population Pyknosed Nuclei (%).
Response given: 33

Challenge: So what's the measured Population Pyknosed Nuclei (%) for this one? CCCSc1nc(N[C@@H]2C[C@H]2c2ccc(F)c(F)c2)c2nnn([C@@H]3C[C@H](OCCO)[C@@H](O)[C@H]3O)c2n1
Response given: 19

====

Give measured Growth Rate for each item. Keep answers brief.
Tested on: U2OS
Test: Incucyte cell viability with U2OS; also: filed as whole numbers so only -1 and 0 and 1 occur
Type: toxicity, cell-based
Conditions: human, 18 h, 10 µM, compound concentration 10 uM, replicate number 1, timepoint 18 hours
Form field (numeric): enter value without unit.

Challenge: Data request, read-out Growth Rate, for O[C@H]1CC[C@H](Nc2ncc3nc(Nc4c(F)cc(F)cc4F)n([C@H]4CCOC4)c3n2)CC1
Response given: 0

Challenge: Recorded Growth Rate for CC(C)Oc1ccc(-c2c[nH]cc2CN(C)CCN)cc1 , please?
Response given: 0

Challenge: Using the record for O=C(N[C@@H](C1CC1)C(F)(F)F)c1cc(-c2cnn3cc(-c4ccc(F)cc4)cnc23)cs1 , report its Growth Rate.
Response given: 0

Challenge: Look at this molecule and give its reported Growth Rate. COc1cc(C(=O)NS(=O)(=O)c2ccccc2C)ccc1Cc1cn(C)c2ccc(NC(=O)OC3CCCC3)cc12
Response given: 1

Challenge: // lookup Growth Rate for C=CC(=O)Nc1cccc(Oc2nc(Nc3ccc(N4CCN(C)CC4)cc3OC)ncc2Cl)c1
Response given: 0

Challenge: # get_value(readout='Growth Rate', item= CN(C)C(=O)/C(C#N)=C/c1ccc(-c2nc3cnc4c(ccn4C)c3n2C2CCCCC2)o1 )
Response given: 0

Challenge: Any idea what Growth Rate was measured for Cc1csc(NC(=O)c2cc(F)cc(Oc3cncnc3)c2)n1 ?
Response given: 0

Challenge: What Growth Rate value was documented for this molecule, CN1C[C@H](Nc2cnn(C)c(=O)c2Br)C[C@H](c2ccccc2)C1 ?
Response given: 1

Challenge: Name the reported Growth Rate value associated with the molecule C[C@]12CC[C@@H]3c4ccc(O)cc4CC[C@H]3[C@@H]1CC[C@@H]2O
Response given: 0

====

Test system: HEK-293T
Experiment: Multiplex assay against HEK293T
Type: toxicity, cell-based
Settings: human, 12 h, 1 µM, compound concentration 1 uM, replicate 1
What Population Hoechst High Intensity Objects (%) was measured for each of the following?
Kindly answer with a numeric value in %, unit omitted.

Challenge: Fill blank: measured Population Hoechst High Intensity Objects (%) of the compound O=C(c1cc2c(cc1F)OC(c1ccc(F)cc1)(c1ccc(Cl)cc1Cl)O2)N1CCOCC1 (stereo not drawn) is ____.
Response given: 12

Challenge: Name the recorded Population Hoechst High Intensity Objects (%) for CC(C)NC(=O)N1CC[C@H](NC2=Nc3cc(F)ccc3N(CC(F)F)c3ccc(Cl)cc32)C1 .
Response given: 18

Challenge: Request the reported Population Hoechst High Intensity Objects (%) associated with CC(C)CC(=O)Nc1[nH]nc2c1CN(C(=O)C1CCN(C)CC1)C2(C)C
Response given: 8

Challenge: Fill blank: measured Population Hoechst High Intensity Objects (%) of the compound COc1ccccc1CN[C@H]1C2CCN(CC2)[C@H]1C(c1ccccc1)c1ccccc1 is ____.
Response given: 13

Challenge: # get_value(readout='Population Hoechst High Intensity Objects (%)', item= COC(=O)C1=C(C)NC(C)=C(C(=O)OCCCN2CCC(c3ccccc3)(c3ccccc3)CC2)[C@H]1c1cccc([N+](=O)[O-])c1 )
Response given: 9

Challenge: Can you look up the measured Population Hoechst High Intensity Objects (%) of Cc1c[nH]c2nccc(Oc3c(F)cc(Nc4cc(Cl)nc(N)n4)cc3F)c12 for me?
Response given: 12

Challenge: Form field: reported Population Hoechst High Intensity Objects (%) of C=CC(=O)Nc1cccc(Sc2nc(Nc3ccc(N4CCN(C)CC4)cc3)ncc2Cl)c1
Response given: 16

Challenge: For the compound shown here, COc1ccc(-c2ccc3ncc4c(c3c2)n(-c2ccc(N3CCNCC3)c(C(F)(F)F)c2)c(=O)n4C)cn1.O=C(O)/C=C\C(=O)O , give the reported Population Hoechst High Intensity Objects (%).
Response given: 25

====

System: U2OS
Assay: Multiplex assay against U2OS
Format: toxicity, cell-based
Conditions: human, 24 h, 10 µM, compound concentration 10 uM, replicate 2
Could you please report measured Population Mitochondria Different-Phenotype (%) for the items listed next?
# number only, unit % dropped from output

Challenge: Can you look up the measured Population Mitochondria Different-Phenotype (%) of O=C(c1cc2c(cc1F)OC(c1ccc(F)cc1)(c1ccc(Cl)cc1Cl)O2)N1CCOCC1 (centres undefined) for me?
Response given: 100

Challenge: Fill in the blank: the reported Population Mitochondria Different-Phenotype (%) of C=CC(=O)Nc1cccc(Oc2nc(Nc3ccc(N4CCN(C)CC4)cc3OC)ncc2Cl)c1 is ____.
Response given: 17

Challenge: Given the entry CNC(=O)Nc1ccc2c(c1)[C@@]1(CC2)OC(=O)N(CC(=O)N(Cc2ccc(F)cc2)[C@@H](C)C(F)(F)F)C1=O , report its measured Population Mitochondria Different-Phenotype (%).
Response given: 33

Challenge: Population Mitochondria Different-Phenotype (%) for CC(C)OC(=O)N1CCC(Oc2ncnc3c2cnn3-c2ccc(S(C)(=O)=O)cc2F)CC1 ?
Response given: 2

Challenge: Which value of Population Mitochondria Different-Phenotype (%) has been reported for CC1=C(C(=O)Nc2cc3cn[nH]c3cc2F)C(c2ccc(C(F)(F)F)cc2)CC(=O)N1 (centres undefined) in the records?
Response given: 14

Challenge: Any idea what its Population Mitochondria Different-Phenotype (%) is? The compound is Cc1c[nH]c2nccc(Oc3c(F)cc(Nc4cc(Cl)nc(N)n4)cc3F)c12
Response given: 20

Challenge: What value of Population Mitochondria Different-Phenotype (%) has been recorded for this entry: Cc1nc(N2CC[C@H](O)C2)ncc1-c1cc(C(F)(F)F)cc2[nH]ncc12
Response given: 40

Challenge: For CC(C)(C)NC[C@H](O)COc1nsnc1N1CCOCC1 , what is its reported Population Mitochondria Different-Phenotype (%)?
Response given: 5

Challenge: Please give the measured Population Mitochondria Different-Phenotype (%) for this compound: COc1cc2ncn(-c3cc(OCc4ccccc4C(F)(F)F)c(C(N)=O)s3)c2cc1OC [GW843682X]
Response given: 91

====

System: HEK-293T
Experiment: Multiplex assay against HEK293T
Type: toxicity, cell-based
Settings: human, 24 h, 10 µM, compound concentration 10 uM, replicate 1
Kindly state Population Apoptotic (%) for each of the entries shown.
Form entry: value (%) — number only.

Challenge: For the compound shown here, C=CC(=O)Nc1cccc(Sc2nc(Nc3ccc(N4CCN(C)CC4)cc3)ncc2Cl)c1 , give the reported Population Apoptotic (%).
Response given: 26

Challenge: # input compound: CCc1nn(CCCN2CCN(c3cccc(Cl)c3)CC2)c(=O)n1CCOc1ccccc1.Cl [NEFAZODONE HYDROCHLORIDE] ; wanted: its Population Apoptotic (%)
Response given: 90

Challenge: I have this compound here, C=CC(=O)Nc1cccc(Oc2nc(Nc3ccc(N4CCN(C)CC4)cc3OC)ncc2Cl)c1 , and I need its recorded Population Apoptotic (%).
Response given: 8

Challenge: Population Apoptotic (%) lookup needed for Cc1ccc(C)c(Oc2ccncc2C(=O)N2CCN(C3CC3)c3ccccc32)c1 , thanks.
Response given: 89

Challenge: Population Apoptotic (%) for C[C@]12CC[C@@H]3c4ccc(O)cc4CC[C@H]3[C@@H]1CC[C@@H]2O ?
Response given: 39

Challenge: Consider the compound shown here: Cc1ccccc1C(c1ccccc1C)N1C2CCC1CC(O)(c1ccccc1)C2 (centres undefined) What is its recorded Population Apoptotic (%)?
Response given: 49

Challenge: Would you mind telling me what Population Apoptotic (%) value was observed for CCCSc1nc(N[C@@H]2C[C@H]2c2ccc(F)c(F)c2)c2nnn([C@@H]3C[C@H](OCCO)[C@@H](O)[C@H]3O)c2n1 ?
Response given: 76

Challenge: // Population Apoptotic (%) lookup, key: Cl.O=C(O)c1cc(-c2ccc(C3CCNCC3)cc2)c2ccc(-c3ccc(C(F)(F)F)cc3)cc2c1
Response given: 66

Challenge: Fill blank: measured Population Apoptotic (%) of the compound CC(C)CC(=O)Nc1[nH]nc2c1CN(C(=O)C1CCN(C)CC1)C2(C)C is ____.
Response given: 25

Source listed as ChEMBL document CHEMBL4689842.
